- target: Human TRPV1 expressing CHO cells (Homo sapiens)
- Sequence (Q8NER1 whole entry): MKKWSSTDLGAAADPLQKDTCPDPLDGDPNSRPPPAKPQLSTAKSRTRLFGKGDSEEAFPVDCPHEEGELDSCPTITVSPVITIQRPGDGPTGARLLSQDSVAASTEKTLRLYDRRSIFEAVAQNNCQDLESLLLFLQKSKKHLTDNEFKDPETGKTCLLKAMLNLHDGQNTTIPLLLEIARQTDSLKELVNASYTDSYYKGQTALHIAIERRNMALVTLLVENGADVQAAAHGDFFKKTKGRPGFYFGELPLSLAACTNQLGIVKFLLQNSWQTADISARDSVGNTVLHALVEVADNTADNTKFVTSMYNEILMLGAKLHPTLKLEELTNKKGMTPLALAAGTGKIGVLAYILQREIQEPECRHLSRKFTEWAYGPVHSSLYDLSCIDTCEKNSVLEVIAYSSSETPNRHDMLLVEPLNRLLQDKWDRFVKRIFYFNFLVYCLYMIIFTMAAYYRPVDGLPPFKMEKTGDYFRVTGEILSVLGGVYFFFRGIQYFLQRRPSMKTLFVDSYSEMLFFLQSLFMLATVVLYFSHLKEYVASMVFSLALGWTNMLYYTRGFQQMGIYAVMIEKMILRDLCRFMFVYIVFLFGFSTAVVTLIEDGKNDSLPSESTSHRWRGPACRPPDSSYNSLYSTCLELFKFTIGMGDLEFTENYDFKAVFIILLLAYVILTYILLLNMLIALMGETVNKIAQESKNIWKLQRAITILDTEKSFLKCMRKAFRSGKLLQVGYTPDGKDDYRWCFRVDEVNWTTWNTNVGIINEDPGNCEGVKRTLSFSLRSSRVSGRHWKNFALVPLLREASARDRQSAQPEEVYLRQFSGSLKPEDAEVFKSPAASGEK
- protocolDetails: Screening for TRPV1 antagonist using the 45Calcium uptake assay (inhibition of capsaicin induced cellular uptake of radioactive calcium)
- cond: inhibition of capsaicin (250 nM) induced ^45Ca uptake
pIC50: −log10 of the molar value.
readout: pIC50

compound="O=C(Nc1cccc2cnccc12)NC1CC2(CCC2)Oc2ccc(Br)cc21 (racemic)" endpointresult=6.39
compound="Cc1nccc2c(NC(=O)NC3CC4(CCC4)Oc4ccc(Cl)cc43)cccc12 (racemic)" endpointresult=6.04

[I] S=C(Nc1cccc2cnccc12)NC1CC2(CCC2)Oc2ccccc21 (stereo not shown)
[II] Cc1cc2c(NC(=O)NC3CC4(CCC4)Oc4cc(Cl)ccc43)cccc2cn1 (racemic)
[III] O=C(Nc1cccc2cnccc12)NC1CC2(CCC2)Oc2ccccc21 (racemic) [Example 3]
[IV] Cc1cc2c(NC(=O)NC3CC4(CCC4)Oc4cc(OC(F)F)ccc43)cccc2cn1 (racemic)
Inquiry: Descending sort on pIC50 required. Return value: ordered labels per request.
Reply text: III, IV, I, II
(III: 8.54, IV: 7.84, I: 7.31, II: 6.35)

[A] O=C(Nc1cccc2cnccc12)NC1CC2(CCC2)Oc2c(Cl)cc(Cl)cc21 (racemic)
[B] Cc1ccc2c(c1)OC1(CCC1)CC2NC(=O)Nc1cccc2cnccc12 (racemic)
[C] Cc1cc2c(NC(=O)NC3CC4(CCC4)Oc4ccccc43)cccc2cn1 (racemic)
[D] Cc1cc2c(NC(=O)NC3CC4(CCC4)Oc4ccc(Cl)cc43)cccc2cn1 (racemic)
Inquiry: Arrange these 4 compounds in increasing order of pIC50. Quick reminder: the answer is the labels in the order asked.
Reply text: D, A, C, B

[a] COc1ccc2c(c1)C(NC(=O)Nc1cccc3cnccc13)CC1(CCC1)O2 (racemic)
[b] COc1ccc2c(c1)OC1(CCC1)CC2NC(=O)Nc1cccc2cnccc12 (racemic)
Inquiry: Returns: the argument ( a or b ) having the larger pIC50. Identify your selection by its label.
Reply text: b
